Target: T1, CRBN, Q96SW2;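 further: pooled lentiviral library of zinc finger degron-EGFP fusions in mCherry-positive Jurkat cells, FACS-sorted after compound exposure, with degron abundance counted by next-generation sequencing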
T1 chain: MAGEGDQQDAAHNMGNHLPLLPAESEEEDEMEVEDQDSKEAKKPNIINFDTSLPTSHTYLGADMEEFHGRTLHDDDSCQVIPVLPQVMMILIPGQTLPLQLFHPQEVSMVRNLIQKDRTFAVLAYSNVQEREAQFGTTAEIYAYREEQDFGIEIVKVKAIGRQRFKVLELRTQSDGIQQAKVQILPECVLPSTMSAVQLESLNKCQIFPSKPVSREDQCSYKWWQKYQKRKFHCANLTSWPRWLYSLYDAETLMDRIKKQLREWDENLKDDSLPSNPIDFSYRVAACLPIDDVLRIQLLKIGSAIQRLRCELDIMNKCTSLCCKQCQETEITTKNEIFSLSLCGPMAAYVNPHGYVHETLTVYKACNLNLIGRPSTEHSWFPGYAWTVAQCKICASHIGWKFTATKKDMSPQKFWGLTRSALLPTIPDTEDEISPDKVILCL
Experiment: log2 fold change of degron read counts, EGFP-low vs EGFP+ sorted cells (limma voom), compound-induced degradation; higher = more compound-induced degradation of the degron-EGFP fusion; degrons are variants of IKZF1/3 zinc finger 2; compound dose not given here
Details: Jurkat; 18 h; compound: compound 22 (5-morpholino-thalidomide)
Whole data set: some 8,300 sequences, median “log2 fold change of degron read counts, EGFP-low vs EGFP+ sorted cells (limma voom), compound-induced degradation” near -1.1, cut for the highest 2% near 3.2. Shown is part of a subset that was picked to be rich in the highest values.
measured parameter: log2 fold change of degron read counts

1. FGCDICGALFTQKGNLLRHIKL [46F_47G_49D_50I_52G_53A_54L_55F_67L_, Q9UKT9] : -0.455
2. LYCPICGFECTQKGNLLRHIKL [46L_47Y_49P_50I_52G_53F_54E_55C_67L_, Q9UKT9] : 2.56
3. FKCPVCGAAFTQKGNLLRHIKL [46F_47K_49P_50V_52G_53A_54A_55F_67L_, Q9UKT9] : -0.2
4. FCCNQCGASFTQKGNLLRHIKL [46F_47C_49N_50Q_52G_53A_54S_55F_67L_, Q9UKT9] : -1.92

Entry source: the supplement of paper PMC12645437
